B1: LINE1-full (parent)
chain: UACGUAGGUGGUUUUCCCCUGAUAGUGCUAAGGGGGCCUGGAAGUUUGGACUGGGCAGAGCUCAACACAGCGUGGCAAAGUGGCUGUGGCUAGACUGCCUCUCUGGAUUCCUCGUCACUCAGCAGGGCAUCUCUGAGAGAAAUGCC

# Variants of: B1
# Experiment Notes: self-cleavage, relative activity (ratio to wild type); higher = more cleavage; in vitro, sequencing; the parent is a self-cleaving ribozyme
// self-cleavage lookup, one value per entry

[
  {
    "Variant Descriptor": "C18U U109A",
    "self-cleavage": 0.9
  },
  {
    "Variant Descriptor": "G54A A67G",
    "self-cleavage": 0.12
  },
  {
    "Variant Descriptor": "A94G U100C",
    "self-cleavage": 0.44
  },
  {
    "Variant Descriptor": "C66U A136G",
    "self-cleavage": 0.04
  },
  {
    "Variant Descriptor": "U5G A141G",
    "self-cleavage": 0.49
  },
  {
    "Variant Descriptor": "G60A A94C",
    "self-cleavage": 0.01
  },
  {
    "Variant Descriptor": "C103U A142C",
    "self-cleavage": 1.23
  },
  {
    "Variant Descriptor": "A57G A138G",
    "self-cleavage": 1.12
  },
  {
    "Variant Descriptor": "U14C A94C",
    "self-cleavage": 0.09
  },
  {
    "Variant Descriptor": "C71U U134A",
    "self-cleavage": 0.36
  },
  {
    "Variant Descriptor": "A6G A30G",
    "self-cleavage": 1.14
  },
  {
    "Variant Descriptor": "U13A A67G",
    "self-cleavage": 0.22
  },
  {
    "Variant Descriptor": "A59U U73A",
    "self-cleavage": 0.94
  },
  {
    "Variant Descriptor": "U52C U104A",
    "self-cleavage": 1.02
  },
  {
    "Variant Descriptor": "A67G G93A",
    "self-cleavage": 0.02
  },
  {
    "Variant Descriptor": "A77U A141G",
    "self-cleavage": 1.4
  },
  {
    "Variant Descriptor": "A117U U143C",
    "self-cleavage": 1.43
  },
  {
    "Variant Descriptor": "A65G G97A",
    "self-cleavage": 0.03
  },
  {
    "Variant Descriptor": "U46C U102C",
    "self-cleavage": 1.13
  },
  {
    "Variant Descriptor": "U9A A92U",
    "self-cleavage": 0.73
  },
  {
    "Variant Descriptor": "U39G A121G",
    "self-cleavage": 1.23
  },
  {
    "Variant Descriptor": "A59U A94G",
    "self-cleavage": 1.71
  },
  {
    "Variant Descriptor": "A79U A138G",
    "self-cleavage": 1.76
  },
  {
    "Variant Descriptor": "G55U U85A",
    "self-cleavage": 0.03
  },
  {
    "Variant Descriptor": "A79G U96G",
    "self-cleavage": 0.16
  },
  {
    "Variant Descriptor": "U52A G72A",
    "self-cleavage": 1.55
  },
  {
    "Variant Descriptor": "A121G A136G",
    "self-cleavage": 1.65
  },
  {
    "Variant Descriptor": "U73G A142U",
    "self-cleavage": 0.61
  },
  {
    "Variant Descriptor": "U9A U115C",
    "self-cleavage": 1.55
  },
  {
    "Variant Descriptor": "G40U A67G",
    "self-cleavage": 0.21
  },
  {
    "Variant Descriptor": "U52C U81C",
    "self-cleavage": 1.08
  },
  {
    "Variant Descriptor": "A67G C133A",
    "self-cleavage": 0.41
  },
  {
    "Variant Descriptor": "A24C A138G",
    "self-cleavage": 0.88
  },
  {
    "Variant Descriptor": "G75U A78U",
    "self-cleavage": 1.49
  },
  {
    "Variant Descriptor": "A31U A124G",
    "self-cleavage": 1.09
  },
  {
    "Variant Descriptor": "A2G A59G",
    "self-cleavage": 0.39
  },
  {
    "Variant Descriptor": "U26C C95A",
    "self-cleavage": 0.1
  },
  {
    "Variant Descriptor": "C99U C145U",
    "self-cleavage": 0.82
  }
]
